- Species on record: Homo sapiens
- Test Protocol: Selectivity ratio of IC50 for human HDAC1 to IC50 for human HDAC6
The following molecules are shown together with reported Ratio IC50 values.

Below are worked cases with known answers.
1. O=C(CS)NCCCCCCn1cc(Cl)c2cc(Cl)c(Cl)cc21	> 124
2. O=C(CS)NCCCCCCn1ccc2cc(Cl)c(Cl)cc21	> 470

Alright, here's another molecule for you.
Value of measured Ratio IC50 for the entry O=C(CS)NCCCCCOc1c(Cl)cc(Cl)c2cccnc12 : > 901
